# MEASUREMENT_NOTES: qHTS assay to identify small molecule antagonists of the estrogen related receptor (ERR) signaling pathway from Tox21 library (AID 1224848); also: nearly all actives have a fitted effect of over 50% in size
# EXPERIMENTAL_PARAMETERS: ERR reporter cell line, luciferase antagonist mode, 18 h; series mostly up to 92.4 µM
Records with an inconclusive call do not appear. Calls of active or inactive are those of the source. Calls follow the shape of the dose curve; as a rule, active = well fitted inhibition curve with a large enough effect in the repeat runs; inconclusive = weak or mixed curves; inactive = no such curve, though single readings can be large or run the other way.
Reply using exactly one outcome from Yes for active, No for inactive

CCCCC(O)(Cn1cncn1)c1ccc(Cl)cc1Cl (stereo not drawn) = Yes
O=[Se]=O = Yes

Q) Hi team, can someone confirm the assay call for S=C=NCc1ccccc1 ?
A) No

Q) Hi team, can someone confirm the assay call for O=C(O)C(F)(F)C(F)(F)C(F)(F)C(F)(F)C(F)(F)C(F)(F)C(F)(F)C(F)(F)C(F)(F)F ?
A) No

Q) Hi team, can someone confirm the assay call for C/C(=C\c1ccccc1)[N+](=O)[O-] ?
A) Yes

Q) Hi team, can someone confirm the assay call for Cc1ccccc1CCl ?
A) No

Q) Hi team, can someone confirm the assay call for NC(=O)CI ?
A) No

Q) Hi team, can someone confirm the assay call for ClCc1cccc(Cl)c1 ?
A) No
